system: cultured human mast cells; assay: Degranulation inhibition test using cultured human mast cells (IgE cross-linking, β-Hexosaminidase release); type: cell-based; conditions: Mast cell; cultured human mast cells, anti-hIgE stimulation, β-Hexosaminidase index, average; read-out: human degranulation ave. IC50
pIC50: −log10 of the molar value.
So I've got a bunch of compounds here, and I need their pIC50 values.

So what does the record say about pIC50 for CC(=O)Nc1nc([C@H](C)NC(C)=O)sc1-c1cccc(Nc2cc(C)ccn2)n1 ?
< 6.00

Please do the same for Cc1ccnc(Nc2cccc(-c3cnc(C4CCC(c5nnn[nH]5)CC4)s3)n2)c1 (centres unmarked) as well.
6.00 to 7.00

Same lookup for Cc1ccnc(Nc2cccc(-c3cnc([C@H]4CC[C@H](C(=O)N5C[C@H](O)C[C@H](O)C5)CC4)s3)n2)c1 , please.
6.00 to 7.00

Follow-up item: Cc1ccnc(Nc2cccc(-c3cnc([C@H](C)NC(=O)Cc4ccc(O)cc4)s3)n2)c1
6.00 to 7.00

Try this compound too: O=C1CC[C@@H](c2ncc(-c3cccc(Nc4cc(Cl)ccn4)n3)s2)N1
> 7.00

Request: Cc1ccnc(Nc2cccc(-c3cnc(C(=O)NCC(C)O)s3)n2)c1 (centres unmarked)
< 6.00

Thanks! And Cc1ccnc(Nc2cccc(-c3cnc(N4CCC(CCC(=O)O)CC4)s3)n2)c1 ?
6.00 to 7.00

What would you report for Cc1ccnc(Nc2cccc(-c3cnc(C4CCC(O)CC4)s3)n2)c1 (centres unmarked) ?
6.00 to 7.00

* * *

biological target: GST-Syk Full Protein (human) (Homo sapiens, UniProt P43405); test: Syk kinase inhibition test (HTRF method); format: biochemical; conditions: HTRF, 100 μM ATP, 30 min room temperature, average; read-out: sykHTRF ave IC50
ASSAY_METRIC: IC50

Fill blank: measured IC50 of the compound Cc1ccnc(Nc2cccc(-c3cnc(COCC(=O)N4C[C@@H](O)[C@@H](O)C4)s3)n2)c1 is ____.
100 to 1000 nM

Try the compound COc1ccnc(Nc2cccc(-c3cnc([C@@H]4CCC(=O)N4)s3)n2)c1
< 100 nM

Ok, now Cc1ccnc(Nc2cccc(-c3cnc([C@@H](N)C(C)C)s3)n2)c1
100 to 1000 nM

Quick one: CN[C@@H](C)c1ncc(-c2cccc(Nc3cc(C)ccn3)n2)s1
100 to 1000 nM

Cool, now Cc1ccnc(Nc2cccc(-c3cnc([C@@H](N)Cc4ccc(OCc5ccccc5)cc4)s3)n2)c1
100 to 1000 nM

Subsequent entry: CON(C)C(=O)c1nc([C@H](C)NC(C)=O)sc1-c1cccc(Nc2cc(C)ccn2)n1
> 1000 nM

Param item: Cc1ccnc(Nc2cccc(-c3cnc(C4CCN(C(N)=O)CC4)s3)n2)c1
< 100 nM

Record: Cc1ccnc(Nc2cccc(-c3cnc(C4CCN(S(C)(=O)=O)CC4)s3)n2)c1
100 to 1000 nM

Similarly, Cc1ccnc(Nc2cccc(-c3cnc(C4CCN(CCO)CC4)s3)n2)c1 ?
100 to 1000 nM

Same for Cc1ccnc(Nc2cccc(-c3cnc([C@@H](N)Cc4ccc(NC(=O)OCc5ccccc5)cc4)s3)n2)c1
100 to 1000 nM

Try this compound next: Cc1ccnc(Nc2cccc(-c3cnc([C@H]4CC[C@H](C(=O)NC5(CO)CCCC5)CC4)s3)n2)c1
100 to 1000 nM

Then CC(=O)Nc1ccc(CCc2ncc(-c3cccc(Nc4cc(C)ccn4)n3)s2)cc1 ?
100 to 1000 nM

// next record Cc1ccnc(Nc2cccc(-c3cnc([C@H]4CC[C@H](CN5CCC(O)CC5)CC4)s3)n2)c1
100 to 1000 nM

Now consider Cc1ccnc(Nc2cccc(-c3cnc([C@H]4CC[C@H](C(=O)N5CCCC(O)C5)CC4)s3)n2)c1 (stereo partly shown) and answer again.
100 to 1000 nM

Next compound up: Cc1ccnc(Nc2cccc(-c3cnc([C@H]4CC[C@H](C(=O)NCCN5CCOCC5)CC4)s3)n2)c1
< 100 nM

Then what about the compound Cc1ccnc(Nc2cccc(-c3cnc([C@H]4CC[C@H](C(=O)NC(C)(C)CO)CC4)s3)n2)c1 ?
100 to 1000 nM
